# credit: paper PMC4336329

Target: human ether-à-go-go-related gene (hERG) potassium channel (human);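 also: peak tail current of the secondary pulse compared with the same well before compound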
Sequence (Q12809 whole entry, looked up): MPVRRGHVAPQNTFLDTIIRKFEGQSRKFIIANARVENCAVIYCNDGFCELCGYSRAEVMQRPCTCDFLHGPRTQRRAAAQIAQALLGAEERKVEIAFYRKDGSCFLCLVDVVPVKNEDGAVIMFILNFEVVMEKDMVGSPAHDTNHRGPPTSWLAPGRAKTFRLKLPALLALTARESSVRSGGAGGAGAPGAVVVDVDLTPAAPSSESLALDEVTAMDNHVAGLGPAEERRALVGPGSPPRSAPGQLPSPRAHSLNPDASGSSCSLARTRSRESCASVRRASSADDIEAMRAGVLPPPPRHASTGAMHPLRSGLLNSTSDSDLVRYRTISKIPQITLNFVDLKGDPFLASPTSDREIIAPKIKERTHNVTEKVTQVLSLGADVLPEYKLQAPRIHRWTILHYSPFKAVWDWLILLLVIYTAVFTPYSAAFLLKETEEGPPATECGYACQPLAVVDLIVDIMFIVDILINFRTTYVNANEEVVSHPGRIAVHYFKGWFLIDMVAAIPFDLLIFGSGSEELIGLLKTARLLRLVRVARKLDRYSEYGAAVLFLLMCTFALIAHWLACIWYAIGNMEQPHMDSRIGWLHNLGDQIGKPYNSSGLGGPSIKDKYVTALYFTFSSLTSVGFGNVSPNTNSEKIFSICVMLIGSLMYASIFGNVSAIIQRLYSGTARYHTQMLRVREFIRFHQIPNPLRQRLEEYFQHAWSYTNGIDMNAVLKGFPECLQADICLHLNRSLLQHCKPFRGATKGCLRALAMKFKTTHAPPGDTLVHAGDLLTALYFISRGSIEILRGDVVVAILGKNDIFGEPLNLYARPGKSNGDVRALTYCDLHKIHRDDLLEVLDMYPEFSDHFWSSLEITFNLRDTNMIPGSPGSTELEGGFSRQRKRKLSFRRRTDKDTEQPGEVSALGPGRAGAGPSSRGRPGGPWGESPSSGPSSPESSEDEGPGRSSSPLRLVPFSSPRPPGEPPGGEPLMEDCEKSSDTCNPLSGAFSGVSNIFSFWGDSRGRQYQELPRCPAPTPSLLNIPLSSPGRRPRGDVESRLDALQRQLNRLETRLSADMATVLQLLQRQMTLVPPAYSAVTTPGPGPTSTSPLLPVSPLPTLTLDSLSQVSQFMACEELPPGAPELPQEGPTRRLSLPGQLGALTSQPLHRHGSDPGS
Assay: primary screen, population patch clamp on CHO cells stably expressing hERG; higher = less effect of the substance
In all, about 310,000 compounds went through this assay and about 14,000 (4.5%) showed an effect of 50% or more. The effect is printed as a negative number. Only a selection was taken, and strong results are over-represented in it overall.
Collected hERG current change (%, negative = inhibition) at 10uM values appear next to each entry.
reportedMetric: hERG current change (%, negative = inhibition) at 10uM (%)

CCOc1ccc2nc(N3CCCC(C(=O)NCCCN4CC(C)CC(C)C4)C3)sc2c1 (centres unmarked); -48.8
CCOc1ccc2nc(N3CCCC(C(=O)NCCCN4CCOCC4)C3)sc2c1 (centres unmarked); -19.6
CCOc1ccc2nc(N3CCCC(C(=O)NCCCN4CCCCC4)C3)sc2c1 (centres unmarked); -64.8
CCOc1ccc2ccccc2c1/C=N\NC(=O)OC; 12.7
Nc1nonc1C(=O)NCCNc1ccc([N+](=O)[O-])cc1; -21.9
